Reported viability, T/C values for the following molecules.
test system: 556581-035-R-J1-PDC complex spheroid growth; test: Anticancer human tumor 556581-035-R-J1-PDC patient-derived ovarian carcinoma cell line growth inhibition [AhR]; settings: second compound 1 µM; first compound 0.00316 µM; active compounds read low
Give a bare numeral; the unit % is implied.

# annotated cases, reported viability, T/C shown
MOLECULE	ASSAY RESULT
Cn1ncnc1C1c2n[nH]c(=O)c3cc(F)cc(c23)NC1c1ccc(F)cc1 (stereo not drawn) + CC(CO)NC(=O)c1cc(-c2ccc(Cl)cc2)nn(-c2cnn(C)c2)c1=O	113
CC[C@@]1(O)C(=O)OCc2c1cc1n(c2=O)Cc2cc3c(CN(C)C)c(O)ccc3nc2-1 + Cc1ccccc1N=Nc1ccc(NC(=O)c2ccnn2C)c(C)c1	84.7

Consider the record given below.
For reference, reported viability, T/C for Nc1ncn(C2CC(O)C(CO)O2)c(=O)n1 (stereo not drawn) + Cc1ccccc1N=Nc1ccc(NC(=O)c2ccnn2C)c(C)c1 stands at 98.5

----------
system: 556581-035-R-J1-PDC complex spheroid growth; assay: Anticancer human tumor 556581-035-R-J1-PDC cell line growth inhibition [AhR]; details: second compound 0.316 µM; first compound 0.03 µM; active compounds read low;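 note: compound exposure lasted 7 days; 100% = DMSO vehicle control growth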
MEASURED METRIC: viability, T/C

Some molecules with recorded viability, T/C:
MOLECULE	MEASURED METRIC	ASSAY RESULT
CCc1c2c(nc3ccc(O)cc13)-c1cc3c(c(=O)n1C2)COC(=O)[C@]3(O)CC + CC(CO)NC(=O)c1cc(-c2ccc(Cl)cc2)nn(-c2cnn(C)c2)c1=O	viability, T/C	36.9%
CCc1c2c(nc3ccc(O)cc13)-c1cc3c(c(=O)n1C2)COC(=O)[C@]3(O)CC + Cc1cncc(-c2nc(NCCc3c[nH]c4ccccc34)c3ncn(C(C)C)c3n2)c1	viability, T/C	40%
CCN(c1cc(-c2ccc(CN3CCOCC3)cc2)cc(C(=O)NCc2c(C)cc(C)[nH]c2=O)c1C)C1CCOCC1 + Cc1cncc(-c2nc(NCCc3c[nH]c4ccccc34)c3ncn(C(C)C)c3n2)c1	viability, T/C	96.2%
CCc1c2c(nc3ccc(O)cc13)-c1cc3c(c(=O)n1C2)COC(=O)[C@]3(O)CC + Cc1ccccc1N=Nc1ccc(NC(=O)c2ccnn2C)c(C)c1	viability, T/C	36.5%

Now look at this one.
O=C(C=Cn1cnc(-c2cc(C(F)(F)F)cc(C(F)(F)F)c2)n1)NNc1cnccn1 + Cc1cncc(-c2nc(NCCc3c[nH]c4ccccc34)c3ncn(C(C)C)c3n2)c1 has a reported viability, T/C of 96.2%

----------
test system: 556581-035-R-J1-PDC complex spheroid growth; assay: Anticancer human tumor 556581-035-R-J1-PDC cell line growth inhibition [AhR]; conditions: second compound 1 µM; first compound 10 µM; active = viability on the fitted dose curve at most 10% of control; inactive = the rest;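 note: compound exposure lasted 7 days; 100% = DMSO vehicle control growth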
Select the matching outcome among true for active, false for inactive

Here are 4 molecules together with their reported answers.
MOLECULE	LABEL
O=C(c1cc(Cc2n[nH]c(=O)c3ccccc23)ccc1F)N1CCN(C(=O)C2CC2)CC1 + Cc1cncc(-c2nc(NCCc3c[nH]c4ccccc34)c3ncn(C(C)C)c3n2)c1	false
O=C(c1cc(Cc2n[nH]c(=O)c3ccccc23)ccc1F)N1CCN(C(=O)C2CC2)CC1 + CC(CO)NC(=O)c1cc(-c2ccc(Cl)cc2)nn(-c2cnn(C)c2)c1=O	false
COc1cccc2c1C(=O)c1c(O)c3c(c(O)c1C2=O)CC(O)(C(=O)CO)CC3OC1CC(N)C(O)C(C)O1 (stereo not given) + Cc1ccccc1N=Nc1ccc(NC(=O)c2ccnn2C)c(C)c1	true
CC1(C)CCC(CN2CCN(c3ccc(C(=O)NS(=O)(=O)c4ccc(NCC5CCOCC5)c([N+](=O)[O-])c4)c(Oc4cnc5[nH]ccc5c4)c3)CC2)=C(c2ccc(Cl)cc2)C1 + CC(CO)NC(=O)c1cc(-c2ccc(Cl)cc2)nn(-c2cnn(C)c2)c1=O	false

Turning now to a further molecule:
Asked: Answer briefly: the call reported for CC1(C)CCC(CN2CCN(c3ccc(C(=O)NS(=O)(=O)c4ccc(NCC5CCOCC5)c([N+](=O)[O-])c4)c(Oc4cnc5[nH]ccc5c4)c3)CC2)=C(c2ccc(Cl)cc2)C1 + Cc1cncc(-c2nc(NCCc3c[nH]c4ccccc34)c3ncn(C(C)C)c3n2)c1 in this assay.
Given back: false
